biological target: Gal6P(b1-4)GlcNAc; experiment: glycan array binding signal (z-score within array); higher = stronger binding; details: glycan notation: IUPAC condensed, linker removed
Many of the other results were omitted from the sample, so the strongest signals are more common in it than they were.
# glycan array binding signal (z-score) annotations
readout_label: glycan array binding signal (z-score)

binder="DCIR1 (Mus musculus), Q9QZ15 (protein) MASEITYAEVKFKNESNSLHTYSESPAAPREKPIRDLRKPGSPSLLLTSLMLLLLLLAITFLVAFIIYFQKYSQLLEEKKAAKNIMHNELNCTKSVSPMEDKVWSCCPKDWRLFGSHCYLVPTVSSSASWNKSEENCSRMGAHLVVIQSQEEQDFITGILDTHAAYFIGLWDTGHRQWQWVDQTPYEESITFWHNGEPSSGNEKCATIIYRWKTGWGWNDISCSLKQKSVCQMKKINL" result=-0.489
binder="MSMEG3662-2a (Mycobacterium smegmatis), A0QYH7_MYCS2 (protein) MGDTLTAGQKLERGGSLQSGNGAYTLTLQDDGNLVLYARDKAVWSTGTNGQDVVRAEVQTDGNFVLYTAEKPVWHTDTKGKKEVKLVLQDDRNLVLYAKDGPAWSSKTDTTEPPPPAPEPEKEAEVAPAAAEEAAPAPVAEPAPAEPAPAAPPPAPPAPRTYTVVSGDTLWAIAERFYGDGSKYQQIADASGIANPDLIHPGQVLTIP" result=-0.205
binder="DC-ASGPR S+GEE (Homo sapiens) (protein) MTRTYENFQYLENKVKVQGFKNGPLPLQSLLQRLRSGPCHLLLSLGLGLLLLVIICVVGFQNSKFQRDLVTLRTDFSNFTSNTVAEIQALTSQGSSLEETIASLKAEVEGFKQERQAVHSEMLLRVQQLVQDLKKLTCQVATINNNGEEASTEGTCCPVNWVEHQDSCYWFSHSGMSWAEAEKYCQLKNAHLVVINSREEQNFVQKYLGSAYTWMGLSDPEGAWKWVDGTDYATGFQNWKPGQPDDWQGHGLGGGEDCAHFHPDGRWNDDVCQRPYHWVCEAGLGQTSQESH" result=-0.321
binder="VLRB.aGPA.23-GCN4-biotin (Petromyzon marinus) (protein) ACPSQCSCSGTEVNCAGKSLASVPAGIPTTTRVLYLNSNQITKLEPGVFDRLANLRELHLWGNQLVSLPPGVFDNLANLEKLWLNSNQLTSLPAGLFDRLVNLEHLGLCCMKLTELPSGAFDKLTRLKQLGLDQNQLKSIPDGAFARLPSLTHVWLHTNPWDCQCTDILYLSGWVAQHSSIVGEGWPWRHSPDSAKCSGTNTPVRAVTEASTSPSKCP" result=-0.084
binder="WGA (Triticum vulgare) (protein) QRCGEQGSNMECPNNLCCSQYGYCGMGGDYCGKGCQNGACWTSKRCGSQAGGATCPNNHCCSQYGHCGFGAEYCGAGCQGGPCRADIKCGSQSGGKLCPNNLCCSQWGFCGLGSEFCGGGCQSGACSTDKPCGKDAGGRVCTNNYCCSKWGSCGIGPGYCGAGCQSGGCDAVFAGAITANSTLLAE" result=-0.418
binder="EULS2 M2 (Oryza sativa) (protein) MVYCRANPNYAMTARNGAVVLAPANPKDEYQHWIKDMRWSTSIKDEEGYPAFALVNKATGQAIKHSLGQSHPVRLVPYNPEVMDESVLWTESRDVGNGFRCIRMVNNIYLNFDAFHGDKYHGGVRDGTDIVLWKLCEGDSQRWKIQPYYILEQKLISEEDLNSAVDHHHHHH" result=-0.418
binder="GS13455A-bfa-343-25-343 (Bacteroides fragilis) (protein) KDEIQIVDQDTSWQMDNKYIEEDIREQLGIDPFTDLVYLGYYGNPYTQLEAINDLVNTTLVGKNELSFKVKVTKPYKEDIKVNLMKEDKLVTDFPEMAEGIPLFPSENCTFEGGVLKAGELETTVKLTLKDVEKLNNLSGYVMAIKLTMEGSHEHLAIARTRSSYFVKLNLSIRLDNIDSSNKKIEGKGFNKEISFKSDIRPDKLGSLNDGNFTANNWYTSNANNYLTIILPEKQSLKGFRLDTNTSPSGSYMLKSCRVMVETPDGNWVNHGVFDRKSMDGIAYISFKKPVECTKVRFENMMAFNGRFSVDVNEVTAFR" result=-0.523
